target: EP2 receptor (Mus musculus, UniProt Q62053)
Sequence (Q62053 whole entry): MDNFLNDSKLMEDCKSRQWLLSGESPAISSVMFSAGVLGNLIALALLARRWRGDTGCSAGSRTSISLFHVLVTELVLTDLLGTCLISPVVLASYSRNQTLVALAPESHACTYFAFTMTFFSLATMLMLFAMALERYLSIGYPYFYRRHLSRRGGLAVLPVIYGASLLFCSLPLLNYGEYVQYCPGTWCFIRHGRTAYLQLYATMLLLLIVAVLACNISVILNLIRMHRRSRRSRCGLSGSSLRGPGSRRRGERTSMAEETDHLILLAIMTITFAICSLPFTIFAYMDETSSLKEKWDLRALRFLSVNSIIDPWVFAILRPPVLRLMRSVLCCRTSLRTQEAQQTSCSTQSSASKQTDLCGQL
quantity-name: Ki

molecule	reported-measurement
CSCc1ccc(CCCC(=O)O)c(NC(=O)C(C)c2cccc3ccccc23)c1 (stereo not shown)	> 10 µM
